- measurement.description: clinical
- measurement.setup: human, plasma, oral, 10 mg/day
reported.endpoint: half-life

// lookup half-life for CCOc1ccc(Cc2cc([C@@H]3O[C@H](CO)[C@@H](O)[C@H](O)[C@H]3O)ccc2Cl)cc1
~8 h

###

- measurement.description: clinical
- measurement.setup: human, plasma, oral, Dapagliflozin mean Cmax, group receiving dapagliflozin and placebo, Day −1
reported.endpoint: Cmax (ng/mL)
Numbers only, in ng/mL.

// lookup Cmax for CCOc1ccc(Cc2cc([C@@H]3O[C@H](CO)[C@@H](O)[C@H](O)[C@H]3O)ccc2Cl)cc1
110

###

- measurement.description: clinical
- measurement.setup: human, plasma, oral, Dapagliflozin mean Cmax, cotadutide group, Day −1 (cotadutide not yet co-administered)
reported.endpoint: Cmax (ng/mL)
Numbers only, in ng/mL.

// lookup Cmax for CCOc1ccc(Cc2cc([C@@H]3O[C@H](CO)[C@@H](O)[C@H](O)[C@H]3O)ccc2Cl)cc1 [dapagliflozin]
117

###

- measurement.description: clinical
- measurement.setup: human, plasma, oral, Dapagliflozin mean Cmax, group receiving dapagliflozin and placebo, Day 28
reported.endpoint: Cmax (ng/mL)
Answers are plain numbers, in ng/mL.

// lookup Cmax for CCOc1ccc(Cc2cc([C@@H]3O[C@H](CO)[C@@H](O)[C@H](O)[C@H]3O)ccc2Cl)cc1
112

###

- measurement.description: clinical
- measurement.setup: human, plasma, oral, Dapagliflozin mean Cmax, group receiving dapagliflozin and placebo, Day 14
reported.endpoint: Cmax (ng/mL)
Answers are plain numbers, in ng/mL.

// lookup Cmax for CCOc1ccc(Cc2cc([C@@H]3O[C@H](CO)[C@@H](O)[C@H](O)[C@H]3O)ccc2Cl)cc1
95.6

###

- measurement.description: clinical
- measurement.setup: human, plasma, oral, Dapagliflozin mean Cmax, group receiving dapagliflozin and placebo, Day 7
reported.endpoint: Cmax (ng/mL)
Give bare numbers, in ng/mL.

// lookup Cmax for CCOc1ccc(Cc2cc([C@@H]3O[C@H](CO)[C@@H](O)[C@H](O)[C@H]3O)ccc2Cl)cc1
92

###

- measurement.description: clinical
- measurement.setup: human, plasma, oral, Dapagliflozin mean Cmax, in the presence of cotadutide, Day 28
reported.endpoint: Cmax (ng/mL)
Numbers only, in ng/mL.

// lookup Cmax for CCOc1ccc(Cc2cc([C@@H]3O[C@H](CO)[C@@H](O)[C@H](O)[C@H]3O)ccc2Cl)cc1 [dapagliflozin]
94.2

###

- measurement.description: clinical
- measurement.setup: human, plasma, oral, Dapagliflozin mean Cmax, in the presence of cotadutide, Day 14
reported.endpoint: Cmax
Express the reported value numerically, then name its unit.

// lookup Cmax for CCOc1ccc(Cc2cc([C@@H]3O[C@H](CO)[C@@H](O)[C@H](O)[C@H]3O)ccc2Cl)cc1
61.1 ng/mL

The reported numbers originate from patent US20230012936A1.
